Value source: patent US20260242478A1

biological target: T1, Anti-CD28 Fab (SEQ ID NOs: 696, 697); experiment: phage ELISA; clonal phage on plate-captured biotinylated anti-CD28 Fab, anti-M13 HRP detection
T1 construct: Biotinylated and captured on neutravidin coated plates in the phage ELISA
T1 sequence (VH, as listed by the source, chain 1 of 2): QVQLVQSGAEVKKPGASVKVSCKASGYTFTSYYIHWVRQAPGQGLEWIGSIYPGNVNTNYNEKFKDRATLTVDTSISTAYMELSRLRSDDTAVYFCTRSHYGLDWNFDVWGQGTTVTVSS
T1 sequence (VL, as listed by the source, chain 2 of 2): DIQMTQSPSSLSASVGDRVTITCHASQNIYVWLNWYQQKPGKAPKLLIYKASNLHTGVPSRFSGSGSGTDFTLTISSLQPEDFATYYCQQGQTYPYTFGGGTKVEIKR
In this section we review reported Phage binding ELISA, Anti-CD28 Fab signal values for a set of binders.
measured attribute: Phage binding ELISA, Anti-CD28 Fab signal

| binder | meas value |
| --- | --- |
| YCDGHLQIYMGKCL (tested as crude clonal phage supernatant) [Phage-1002] | 1.53 |
| YCDGHAPEYLTKCL (tested as crude clonal phage supernatant) [Phage-1000] | 1.53 |
| YCEGHLGQYMEKCL (tested as crude clonal phage supernatant) [Phage-998] | 1.54 |
| YCEGHSIQYMTKCL (tested as crude clonal phage supernatant) [Phage-1001] | 1.53 |
| YCDGHSVEYLDKCL (tested as crude clonal phage supernatant) [Phage-1003] | 1.53 |
| YCAGHLEEYMWKCL (tested as crude clonal phage supernatant) [Phage-1009] | 1.51 |
| YCDGHAWQYMWKCL (tested as crude clonal phage supernatant) [Phage-1004] | 1.53 |
| YCEGHAPVYMFKCL (tested as crude clonal phage supernatant) [Phage-997] | 1.54 |
| YCAGHLPVYMDKCL (tested as crude clonal phage supernatant) [Phage-1007] | 1.52 |
| YCDGHLPEYLAKCL (tested as crude clonal phage supernatant) [Phage-1005] | 1.52 |
| YCEGHSAMYIWKCL (tested as crude clonal phage supernatant) [Phage-1008] | 1.52 |
| YCDGHLAVYMAKCL (tested as crude clonal phage supernatant) [Phage-1006] | 1.52 |
| YCDGHNGVYWWKCI (tested as crude clonal phage supernatant) [Phage-999] | 1.53 |
